- cond: siRNA; also: test system not given here
HELM strings list units from the 5' end as sugar, base in round brackets, then linkage (d deoxyribose, r ribose, m 2'-O-methyl, p phosphodiester). Strings are as the collection lists them, not checked against the first reports. ss, as = sense and antisense strand; [lna] = locked nucleic acid (LNA); [s4r] = 4'-thioribose
measured parameter: target mRNA knockdown (%)
I only need the number, in %, no unit after it.

RNA1{r(U)p.m(U)p.r(A)p.m(C)p.r(A)p.r(A)p.r(A)p.m(G)p.m(G)p.r(A)p.r(U)p.r(C)p.r(U)p.r(C)p.r(C)p.r(U)p.r(C)p.r(C)p.r(C)p.r(T)p.r(T)}|RNA2{r(G)p.r(G)p.r(G)p.r(A)p.r(G)p.r(G)p.r(A)p.r(G)p.r(A)p.r(U)p.r(C)p.r(C)p.r(U)p.r(U)p.m(U)p.r(G)p.m(U)p.r(A)p.r(A)p.r(T)p.r(T)}$$$RNA1{StrandType:ss}|RNA2{StrandType:as}$ | 72
RNA1{r(A)p.r(G)p.r(U)p.m(U)p.r(A)p.r(A)p.r(C)p.r(C)p.r(C)p.r(G)p.r(G)p.r(G)p.r(A)p.r(C)p.r(U)p.r(U)p.r(G)p.r(G)p.r(A)p.r(T)p.r(T)}|RNA2{r(U)p.r(C)p.m(C)p.r(A)p.r(A)p.r(G)p.r(U)p.r(C)p.r(C)p.r(C)p.r(G)p.r(G)p.r(G)p.r(U)p.r(U)p.r(A)p.r(A)p.r(C)p.r(U)p.r(T)p.r(T)}$$$RNA1{StrandType:ss}|RNA2{StrandType:as}$ | 91
RNA1{[lna](C)p.r(U)p.r(A)p.r(A)p.r(G)p.r(G)p.r(A)p.r(C)p.r(C)p.r(U)p.r(A)p.r(A)p.r(C)p.r(A)p.r(A)p.r(A)p.r(G)p.r(U)p.r(U)p.r(U)p.r(U)}|RNA2{r(A)p.r(A)p.r(C)p.r(U)p.r(U)p.r(U)p.r(G)p.r(U)p.r(U)p.r(A)p.r(G)p.r(G)p.r(U)p.r(C)p.r(C)p.r(U)p.r(U)p.r(A)p.r(G)p.r(U)p.r(U)}$$$RNA1{StrandType:ss}|RNA2{StrandType:as}$ | 64
RNA1{[s4r](C)p.[s4r](G)p.[s4r](U)p.[s4r](A)p.r(C)p.r(G)p.r(C)p.r(G)p.r(G)p.r(A)p.r(A)p.r(U)p.r(A)p.r(C)p.r(U)p.[s4r](U)p.[s4r](C)p.[s4r](G)p.[s4r](A)p.r(T)p.r(T)}|RNA2{r(U)p.r(C)p.r(G)p.r(A)p.r(A)p.r(G)p.r(U)p.r(A)p.r(U)p.r(U)p.r(C)p.r(C)p.r(G)p.r(C)p.r(G)p.[s4r](U)p.[s4r](A)p.[s4r](C)p.[s4r](G)p.r(T)p.r(T)}$$$RNA1{StrandType:ss}|RNA2{StrandType:as}$ | 88.1

Now turn to the next substance.
Return reported target mRNA knockdown. Input substance: RNA1{r(C)p.r(G)p.r(U)p.r(A)p.r(C)p.r(G)p.r(C)p.r(G)p.r(G)p.r(A)p.r(A)p.r(U)p.r(A)p.r(C)p.r(U)p.r(U)p.r(C)p.r(G)p.r(A)p.r(T)p.r(T)}|RNA2{r(U)p.r(C)p.r(G)p.r(A)p.r(A)p.r(G)p.r(U)p.r(A)p.r(U)p.r(U)p.r(C)p.r(C)p.r(G)p.[s4r](C)p.[s4r](G)p.[s4r](U)p.[s4r](A)p.[s4r](C)p.[s4r](G)p.r(T)p.r(T)}$$$RNA1{StrandType:ss}|RNA2{StrandType:as}$ 72.2
